assay: NCI Yeast Anticancer Drug Screen. Data for the bub3 strain (AID 167); details: S. cerevisiae bub3 mutant strain, at 50.0 µM (retest, dose inferred, filed as 5.0), hits give high values
This is part of a sample that, as a whole, favours compounds with a hit. Of some 79,000 tested, about 15% had one in any assay.
In this section we review reported growth inhibition values for a set of compounds.
Numeric answer only, unit % assumed.

Answered cases to consult:
{"columns": ["compound", "growth inhibition, %"],
 "data": [
  ["Oc1ccc2cc(Br)ccc2c1O", 98],
  ["CCCCCCCCCC(=O)CC(=O)c1ccc(O)cc1O", 98],
  ["[O-][n+]1c(-c2ccccc2)c(Cl)c(-c2ccccc2)n1O", 96],
  ["NCC(CS)C(=O)NC(CS)C(=O)NC(CS)C(=O)NCCNc1ccc(NCCNC(=O)C(CS)NC(=O)C(CS)NC(=O)C(CN)CS)c2c1C(=O)c1c(O)ccc(O)c1C2=O (stereo unspecified)", 58],
  ["CCOC(=O)C1=NNC(C(=O)c2ccccc2)C1c1ccccc1 (stereo unspecified)", 40]
]}

growth inhibition for Cc1ccc(S(=O)(=O)C(Br)CC(=O)c2ccccc2)cc1 (stereo unspecified) ?
97

growth inhibition for CC([C@H]1CCC2C3CCC4CC5(CC[C@]4(C)C3CC[C@@]21C)c1ccccc1C(=O)N5C)N(C)C (stereo partly specified) ?
83

growth inhibition for `Cc1cc(N(CCOS(C)(=O)=O)CCOS(C)(=O)=O)ccc1C=Nc1ccc(-c2csc(-c3ccc(Br)cc3)n2)cc1` ?
85

growth inhibition for C=C(Br)CN1CCC2(c3ccccc3)C(O)C([Se]c3ccccc3)CCC12 (stereo unspecified) ?
84

growth inhibition for `CCCCCCCCCCCCCCCc1ncc(C)[nH]1` ?
99

growth inhibition for `O=C1C(c2ccc([N+](=O)[O-])cc2)=C(Cl)C(=O)c2c(O)cccc21` ?
-37

growth inhibition for C=CC1(C)CCC2C(=CCC3C(C)(C(=O)O)CCCC23C)C1 (stereo unspecified) (tested in a mixture with another compound) ?
66

growth inhibition for `O=C(O)COc1cc(Br)cc(Br)c1-c1ccccc1` ?
46

growth inhibition for O=[N+]([O-])c1cc(C(F)(F)F)cc([N+](=O)[O-])c1N1CCCC(n2cccc2)C1 (stereo unspecified) ?
55

====

In this section we review reported growth inhibition values for a set of compounds.
test: NCI Yeast Anticancer Drug Screen. Data for the cln2 rad14 strain (AID 165);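 further: 0% = growth equal to vehicle treated cultures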; details: S. cerevisiae cln2 rad14 strain, at 50.0 µM (retest, dose inferred, filed as 5.0), hits give high values
This is part of a sample that, as a whole, favours compounds with a hit. Of some 79,000 tested, about 15% had one in any assay.
Numeric answer only, unit % assumed.

{"columns": ["compound", "growth inhibition, %"],
 "data": [
  ["Cc1[nH]c2c(C)c3c([nH]c4ccc(Cl)cc43)c(C)c2c(=O)c1C", 6],
  ["CCCOC1=C(Cl)C(=O)c2cccc([N+](=O)[O-])c2C1=O", 99]
]}

growth inhibition for `O=C(C(=O)c1ccc(Cc2ccc(C(=O)C(=O)c3ccccc3)cc2)cc1)c1ccccc1` ?
-17

growth inhibition for `O=S1(=O)CC=C1c1ccccc1` ?
61

growth inhibition for CCC(C)OC(=O)Nc1cccc(Cl)c1 (configuration not stated) ?
-16

growth inhibition for `Nc1nc(-c2ccccc2)cc(-c2ccccc2O)n1` ?
9

growth inhibition for `c1ccc2c(c1)ccc1ncccc12` ?
10

growth inhibition for CC1(C)OC2C(COC(c3ccccc3)(c3ccccc3)c3ccccc3)OC(n3cnc4c(=O)[nH]cnc43)C2O1 (configuration not stated) ?
97

growth inhibition for `CC(C)=NOc1ccc([N+](=O)[O-])cc1[N+](=O)[O-]` ?
48

growth inhibition for `NC(=S)NNC(=O)c1cccnc1` ?
75

growth inhibition for `O=C1C/C(=C\c2ccccc2)C(=O)c2ccccc2N1` ?
6

growth inhibition for S=C(Nc1ccccc1)NC1CC2C=CC1CC2 (configuration not stated) ?
-11

This collection of values is drawn from PubChem BioAssay (NCI).
